- System: P. vulgatus WT;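 note: active when median AUC fell below 0.1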
- Assay Summary: growth AUC normalised to DMSO control (median) (fraction of control); higher = less growth inhibition, active = hit call of the paper;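 active = normalised median growth AUC below 0.1 of DMSO control; inactive = AUC 0.1 or higher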
- Assay Setup: 20 µM
Counter-ions that a name gives are not always drawn.
Valid outcomes are listed here; reply with one: active, inactive

Query: For this compound, state the assay outcome: Cc1nc2ccccc2n1Cc1ccc(Cl)cc1
Reply: inactive

Query: For this compound, state the assay outcome: COc1ccccc1OCCNCC(O)COc1cccc2[nH]c3ccccc3c12 (stereo not given)
Reply: inactive

Query: For this compound, state the assay outcome: CCC(=O)O[C@]1(C(=O)CCl)[C@@H](C)C[C@H]2[C@@H]3CCC4=CC(=O)C=C[C@]4(C)[C@@]3(F)[C@@H](O)C[C@@]21C [Clobetasol propionate]
Reply: inactive

Query: For this compound, state the assay outcome: Cc1c(Cl)cccc1Nc1ncccc1C(=O)O [Clonixin lysinate]
Reply: inactive

Query: For this compound, state the assay outcome: CN(C)[C@@H]1C(=O)C(C(=O)NCNCCCC[C@H](N)C(=O)O)=C(O)[C@@]2(O)C(=O)C3=C(O)c4c(O)cccc4[C@@](C)(O)[C@H]3C[C@@H]12
Reply: inactive

Query: For this compound, state the assay outcome: CC(C)(C)NCC(O)COc1cccc2c1CC(O)C(O)C2 (stereo not given)
Reply: inactive

Query: For this compound, state the assay outcome: CC(C)(C)NCC(O)CSc1nc(-c2ccc(C(N)=O)s2)cs1 (stereo not given) [Arotinolol hydrochloride]
Reply: inactive

Query: For this compound, state the assay outcome: N=C(N)N1CCc2ccccc2C1 [Debrisoquin sulfate]
Reply: inactive

Query: For this compound, state the assay outcome: O=C1c2cccc3c2[C@H](CCC3)CN1[C@@H]1CN2CCC1CC2 [Palonosetron hydrochloride]
Reply: inactive

Query: For this compound, state the assay outcome: O=C(N/N=C/c1ccc([N+](=O)[O-])o1)c1ccc(O)cc1 [Nifuroxazide]
Reply: inactive

Query: For this compound, state the assay outcome: c1cnc(N2CCN(Cc3ccc4c(c3)OCO4)CC2)nc1
Reply: inactive

Query: For this compound, state the assay outcome: COC(=O)Nc1nc2cc(C(=O)c3ccc(F)cc3)ccc2[nH]1
Reply: inactive

Query: For this compound, state the assay outcome: CCC(=O)[C@@]1(C)[C@H](C)C[C@H]2[C@@H]3CCC4=CC(=O)C=C[C@]4(C)[C@H]3[C@@H](O)C[C@@]21C [Rimexolone]
Reply: inactive

Query: For this compound, state the assay outcome: CN1CCCCC1CCN1c2ccccc2Sc2ccc([S+](C)[O-])cc21 (stereo not given) [Mesoridazine besylate]
Reply: inactive

Query: For this compound, state the assay outcome: N[C@@H](CSCCCO)C(=O)O
Reply: inactive

Query: For this compound, state the assay outcome: O=C1OC(c2ccc(O)cc2)(c2ccc(O)cc2)c2ccccc21
Reply: inactive

Query: For this compound, state the assay outcome: OC[C@H]1O[C@@H](n2cnc3cncnc32)[C@H](O)[C@@H]1O
Reply: inactive

Query: For this compound, state the assay outcome: CNCC[C@@H](Oc1cccc2ccccc12)c1cccs1 [(R)-Duloxetine hydrochloride]
Reply: inactive

Query: For this compound, state the assay outcome: O=C1NCCN1CCN1CCC(c2cn(-c3ccc(F)cc3)c3ccc(Cl)cc23)CC1
Reply: inactive

Query: For this compound, state the assay outcome: Nc1ccc(S(=O)(=O)Nc2nccs2)cc1
Reply: inactive

Query: For this compound, state the assay outcome: CC(C)(Oc1ccc(C2CC2(Cl)Cl)cc1)C(=O)O (stereo not given) [Ciprofibrate]
Reply: inactive

Query: For this compound, state the assay outcome: Nc1nc(CC(=O)Nc2ccc(CCNC[C@H](O)c3ccccc3)cc2)cs1
Reply: inactive

Query: For this compound, state the assay outcome: O=C(O)Cc1cc(I)c(Oc2ccc(O)c(I)c2)c(I)c1
Reply: inactive

Query: For this compound, state the assay outcome: CCC[C@@H]1C[C@@H](C(=O)N[C@@H]([C@H]2O[C@H](SC)[C@H](O)[C@@H](O)[C@H]2O)[C@H](C)Cl)N(C)C1 [Clindamycin hydrochloride]
Reply: active

Query: For this compound, state the assay outcome: COC(=O)C1=C(C#N)NC(C)=C(C(=O)OC(C)C)C1c1cccc([N+](=O)[O-])c1 (stereo not given)
Reply: inactive

Query: For this compound, state the assay outcome: CC(=O)/N=c1/sc(S(N)(=O)=O)nn1C [Methazolamide]
Reply: inactive

Query: For this compound, state the assay outcome: CO/N=C(\C(=O)N[C@@H]1C(=O)N2C(C(=O)O)=C(COC(N)=O)CS[C@H]12)c1ccco1 [Cefuroxime sodium salt]
Reply: active

Query: For this compound, state the assay outcome: CCN(CC)C(C)CN1c2ccccc2Sc2ccccc21 (stereo not given) [Ethopropazine hydrochloride]
Reply: inactive

Query: For this compound, state the assay outcome: CN1C2CCCC1CC(NC(=O)c1nn(C)c3ccccc13)C2 (stereo not given)
Reply: inactive

Query: For this compound, state the assay outcome: CCCCCN(C)CCC(O)(P(=O)(O)O)P(=O)(O)O [Ibandronate sodium]
Reply: inactive
